# studyTarget: human CD33 A74S (human, UniProt P20138 18-364)
# Sequence (P20138 18-364 A74S limits assumed): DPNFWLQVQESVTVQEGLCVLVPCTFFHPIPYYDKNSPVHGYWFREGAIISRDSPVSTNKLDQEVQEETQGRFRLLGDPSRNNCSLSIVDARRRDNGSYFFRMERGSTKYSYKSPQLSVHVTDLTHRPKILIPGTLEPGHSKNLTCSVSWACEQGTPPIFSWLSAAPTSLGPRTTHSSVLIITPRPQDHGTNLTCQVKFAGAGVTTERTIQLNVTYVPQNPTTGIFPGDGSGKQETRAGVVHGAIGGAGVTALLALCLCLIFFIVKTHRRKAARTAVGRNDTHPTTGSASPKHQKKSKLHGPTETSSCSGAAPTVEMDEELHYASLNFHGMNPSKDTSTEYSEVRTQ
# assayComment: alanine scan, flow cytometry;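 note: HEK293-T cells transiently expressing single-residue alanine mutants of CD33 (alanine swapped to serine), antibody binding read by fluorescence in duplicate, background-subtracted, expressed relative to wild-type CD33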
Reported Mean % WT Binding values are given for each entry in this list.
Answer with a number only, understood to be in % WT.

# example entries with known answers
• Refmab #3 (antibody, V domains shown, Full-length format is human IgG1 Fc silent (PG-LALA); The alanine scan used IgG or Fab) VH: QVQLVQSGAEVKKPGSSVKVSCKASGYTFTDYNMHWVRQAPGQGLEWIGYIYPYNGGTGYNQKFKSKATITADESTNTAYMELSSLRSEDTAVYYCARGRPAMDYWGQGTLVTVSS VL: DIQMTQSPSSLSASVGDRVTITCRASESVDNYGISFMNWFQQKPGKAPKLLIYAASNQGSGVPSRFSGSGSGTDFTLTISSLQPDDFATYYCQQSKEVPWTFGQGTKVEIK = 115
• Refmab #4 (antibody, V domains shown, Full-length format is human IgG1 Fc silent (PG-LALA); The alanine scan used IgG or Fab) VH: QVQLVQSGAEVKKPGESVKVSCKASGYTFTNYGMNWVKQAPGQGLEWMGWINTYTGEPTYADKFQGRVTMTTDTSTSTAYMEIRNLGGDDTAVYYCARWSWSDGYYVYFDYWGQGTSVTVSS VL: DIVMTQSPDSLTVSLGERTTINCKSSQSVLDSSTNKNSLAWYQQKPGQPPKLLLSWASTRESGIPDRFSGSGSGTDFTLTIDSPQPEDSATYYCQQSAHFPITFGQGTRLEIK = 72.5
• Refmab #1 (antibody, V domains shown, Full-length format is human IgG1 (Absolute Antibody Ab00283-10.0); The alanine scan used IgG or Fab; also called hP67.6) VH: EVQLVQSGAEVKKPGSSVKVSCKASGYTITDSNIHWVRQAPGQSLEWIGYIYPYNGGTDYNQKFKNRATLTVDNPTNTAYMELSSLRSEDTAFYYCVNGNPWLAYWGQGTLVTVSS VL: DIQLTQSPSTLSASVGDRVTITCRASESLDNYGIRFLTWFQQKPGKAPKLLMYAASNQGSGVPSRFSGSGSGTEFTLTISSLQPDDFATYYCQQTKEVPWSFGQGTKVEVK = 83.7

Please look at the following binder next.
IN: May I ask what Mean % WT Binding has been recorded for Refmab #2 (antibody, V domains shown, Full-length format is human IgG1 Fc silent (PG-LALA); The alanine scan used IgG or Fab) VH: QVQLVQSGAEVKKPGSSVKVSCKASGGTFSDYAISWVRQAPGQGLEWMGRIIPILGVADYAQKFQGRVTITADKSTRTAYMELSSLRSEDTAVYYCARNWADAFDIWGQGTMVTVSS VL: DIQLTQSPSSLSASVGDRVTITCRASQGISSVLAWYQQKPGKAPKLLIYDASSLESGVPSRFSGSGSGTDFTLTISSLQPEDFATYYCQQFDSSITFGQGTKLEIK ?
OUT: 91.7
